Below, each entry is listed with its recorded IC50.
biological target: EGFR[T790M/C797S/L858R] (Homo sapiens, UniProt P00533, C797S/L858R/T790M); construct: purchased Carna Bio; assay: Inhibition of EGFR[T790M/C797S/L858R] biochemical enzymatic activity (HTRF); conditions: EGFR T790M-C797S-L858R, 1 mM ATP, 1 h, room temperature, read-out: IC50 (nM) @T790M- C797S - L858R
Sequence (P00533 25-1210 T790M/C797S/L858R): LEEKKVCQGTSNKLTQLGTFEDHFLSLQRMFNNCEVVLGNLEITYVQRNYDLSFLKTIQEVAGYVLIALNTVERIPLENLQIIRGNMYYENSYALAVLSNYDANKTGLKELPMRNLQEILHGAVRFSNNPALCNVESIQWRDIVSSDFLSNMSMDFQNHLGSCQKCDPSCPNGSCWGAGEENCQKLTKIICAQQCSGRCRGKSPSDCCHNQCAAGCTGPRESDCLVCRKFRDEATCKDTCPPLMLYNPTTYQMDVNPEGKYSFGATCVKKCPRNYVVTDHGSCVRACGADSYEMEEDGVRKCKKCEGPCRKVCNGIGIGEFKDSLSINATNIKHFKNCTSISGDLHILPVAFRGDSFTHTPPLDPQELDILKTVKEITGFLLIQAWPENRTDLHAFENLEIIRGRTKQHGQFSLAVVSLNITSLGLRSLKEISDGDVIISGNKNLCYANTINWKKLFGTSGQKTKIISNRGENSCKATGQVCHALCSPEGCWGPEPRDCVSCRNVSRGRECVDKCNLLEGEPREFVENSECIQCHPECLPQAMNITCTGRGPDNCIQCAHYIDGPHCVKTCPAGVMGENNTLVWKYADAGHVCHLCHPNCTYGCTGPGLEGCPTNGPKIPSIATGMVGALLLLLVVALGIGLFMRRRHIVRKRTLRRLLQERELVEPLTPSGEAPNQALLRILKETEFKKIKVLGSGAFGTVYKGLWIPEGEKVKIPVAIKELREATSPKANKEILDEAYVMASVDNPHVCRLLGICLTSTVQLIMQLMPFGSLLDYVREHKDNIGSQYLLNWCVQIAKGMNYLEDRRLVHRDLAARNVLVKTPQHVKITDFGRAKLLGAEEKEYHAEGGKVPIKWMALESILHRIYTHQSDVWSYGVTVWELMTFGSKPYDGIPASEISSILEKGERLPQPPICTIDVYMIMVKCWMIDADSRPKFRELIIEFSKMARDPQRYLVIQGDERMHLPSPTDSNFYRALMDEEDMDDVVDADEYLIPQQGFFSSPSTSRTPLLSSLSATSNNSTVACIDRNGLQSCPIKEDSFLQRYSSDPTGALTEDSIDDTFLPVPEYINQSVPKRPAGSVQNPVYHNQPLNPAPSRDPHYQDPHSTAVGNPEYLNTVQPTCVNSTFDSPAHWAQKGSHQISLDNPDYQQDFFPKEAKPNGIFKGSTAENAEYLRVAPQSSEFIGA

{"COMPOUND": "CN1CCC2(CC1)CCN(c1ccc3nc4n(c3c1)C13CCC(CN(CCOc5c(cnn5C)-c5cc(cn(C)c5=O)C(=O)N4)C1)C3)C2 (single isomer, unassigned) [Example A88A]", "IC50": "> 5000 nM"}
{"COMPOUND": "CN1CCC12CCN(c1ccc3nc4n(c3c1)C13CCC(CN(CCOc5c(cnn5C)-c5cc(cn(C)c5=O)C(=O)N4)C1)C3)CC2 (single isomer, unassigned) [Example A67A]", "IC50": "> 5000 nM"}
{"COMPOUND": "Cn1ncc2c1OCCN1CC3(CCCC1C3)n1c(nc3ccc(N4CCOCC4)cc31)NC(=O)c1cc-2c(=O)n(C)c1 (stereo not drawn) [Example A9]", "IC50": "> 5000 nM"}

* * *

Below, each entry is listed with its recorded pIC50.
biological target: EGFR (C797S L858R) (Homo sapiens, UniProt P00533, C797S/L858R); construct: purchased signalchem; test: Inhibition of EGFR (C797S L858R) biochemical enzymatic activity (HTRF); conditions: EGFR (C797S L858R), 1 mM ATP, 1 h at room temperature, read-out: IC50 @L858-C797S
Sequence (P00533 25-1210 C797S/L858R): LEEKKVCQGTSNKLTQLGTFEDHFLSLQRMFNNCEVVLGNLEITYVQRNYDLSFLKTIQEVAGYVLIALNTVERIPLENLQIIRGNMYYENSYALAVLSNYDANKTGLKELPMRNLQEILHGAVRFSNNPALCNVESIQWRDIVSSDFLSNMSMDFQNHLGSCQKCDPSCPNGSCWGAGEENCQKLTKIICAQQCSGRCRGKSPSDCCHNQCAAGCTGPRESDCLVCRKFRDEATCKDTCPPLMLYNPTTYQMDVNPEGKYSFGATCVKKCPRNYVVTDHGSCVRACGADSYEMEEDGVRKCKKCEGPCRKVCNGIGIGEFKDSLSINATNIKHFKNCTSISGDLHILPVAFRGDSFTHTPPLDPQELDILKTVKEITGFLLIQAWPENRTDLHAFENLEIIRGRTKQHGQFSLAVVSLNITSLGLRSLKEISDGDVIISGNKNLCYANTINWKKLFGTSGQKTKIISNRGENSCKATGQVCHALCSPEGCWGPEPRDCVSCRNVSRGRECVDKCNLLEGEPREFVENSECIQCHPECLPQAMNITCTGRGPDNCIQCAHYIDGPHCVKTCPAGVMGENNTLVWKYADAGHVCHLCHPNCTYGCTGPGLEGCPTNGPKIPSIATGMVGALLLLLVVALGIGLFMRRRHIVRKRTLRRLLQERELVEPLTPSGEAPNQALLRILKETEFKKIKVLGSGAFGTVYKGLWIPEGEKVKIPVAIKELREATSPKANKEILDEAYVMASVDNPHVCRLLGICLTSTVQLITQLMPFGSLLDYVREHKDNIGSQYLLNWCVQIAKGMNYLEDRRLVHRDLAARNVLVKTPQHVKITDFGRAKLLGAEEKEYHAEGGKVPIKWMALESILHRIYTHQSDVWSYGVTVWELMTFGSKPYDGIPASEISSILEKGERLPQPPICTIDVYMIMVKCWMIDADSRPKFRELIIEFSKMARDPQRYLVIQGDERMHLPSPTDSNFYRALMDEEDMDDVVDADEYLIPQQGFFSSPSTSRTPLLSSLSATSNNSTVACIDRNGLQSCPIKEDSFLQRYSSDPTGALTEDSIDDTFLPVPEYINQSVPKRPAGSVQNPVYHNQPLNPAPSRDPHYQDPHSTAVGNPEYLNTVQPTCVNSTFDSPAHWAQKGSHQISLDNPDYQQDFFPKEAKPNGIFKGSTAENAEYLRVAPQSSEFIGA
pIC50: −log10 of the molar value.
ENDPOINT: pIC50

{"MOLECULE": "Cc1cc2cc(n1)-c1cnn(C)c1OCCN1CC3CCC(C3)(C1)n1c(nc3ccc(N4CCC(N5CCOCC5)C4)cc31)NC2=O (single isomer, unassigned) [Example B44A2]", "ENDPOINT": "pIC50", "VALUE": "< 5.30"}
{"MOLECULE": "Cc1cc2cc(n1)-c1cnn(C)c1OCCN1CC3CCC(C3)(C1)n1c(nc3ccc(N4CCC(N5CCOCC5)C4)cc31)NC2=O (single isomer, unassigned) [Example B44A]", "ENDPOINT": "pIC50", "VALUE": "< 5.30"}
{"MOLECULE": "Cc1cc2cc(n1)-c1cnn(C)c1OCCN1CC3CCC(C3)(C1)n1c(nc3ccc(N4CCN(C5CC5)CC4)cc31)NC2=O (single isomer, unassigned) [Example B55A]", "ENDPOINT": "pIC50", "VALUE": "< 5.30"}
{"MOLECULE": "Cc1cc2cc(n1)-c1cnn(C)c1OCCN1CC3CCC(C3)(C1)n1c(nc3ccc(N4CCC(N5CCN(C)CC5)CC4)cc31)NC2=O (single isomer, unassigned) [Example B59A]", "ENDPOINT": "pIC50", "VALUE": "< 5.30"}
{"MOLECULE": "Cc1cc2cc(n1)-c1cnn(C)c1OCCN1CC3CCC(C3)(C1)n1c(nc3ccc(N4CC5CC4CN5C)cc31)NC2=O (single isomer, unassigned) [Example B53A]", "ENDPOINT": "pIC50", "VALUE": "< 5.30"}
{"MOLECULE": "Cc1cc2cc(n1)-c1cnn(C)c1OCCN1CC3CCC(C3)(C1)n1c(nc3ccc(N4CCN(C5COC5)CC4)cc31)NC2=O (single isomer, unassigned) [Example B58A]", "ENDPOINT": "pIC50", "VALUE": "< 5.30"}

* * *

test system: Ba/F3 cells expressing EGFR mutations; test: Cell proliferation assay, Ba/F3 cells expressing EGFR mutations (CellTiter-Glo, 72 hours); type: cell-based; settings: BaF3 cells, EGFR L858R-T790M, CellTiter-Glo, read-out: L858R-T790M/BaF3 GI50
Below, each entry is listed with its recorded GI50.
ENDPOINT: GI50 (nM)

{"COMPOUND": "CN1CC2(C1)CN(c1ccc3nc4n(c3c1)C13CCC(CN(CCOc5c(cnn5C)-c5cc(cn(C)c5=O)C(=O)N4)C1)C3)C2 (single isomer, unassigned) [Example A92A]", "ENDPOINT": "GI50", "VALUE": 310}
{"COMPOUND": "CN1CCC2(CC1)CN(c1ccc3nc4n(c3c1)C13CCC(CN(CCOc5c(cnn5C)-c5cc(cn(C)c5=O)C(=O)N4)C1)C3)C2 (single isomer, unassigned) [Example A77B]", "ENDPOINT": "GI50", "VALUE": 2.4}
{"COMPOUND": "CC(C)N1CCN(c2ccc3nc4n(c3c2)C23CCC(CN(CCOc5c(cnn5C)-c5cc(cn(C)c5=O)C(=O)N4)C2)C3)CC1 (single isomer, unassigned) [Example A108B]", "ENDPOINT": "GI50", "VALUE": 3.9}
{"COMPOUND": "CN(C)CCN(C)c1ccc2nc3n(c2c1)C12CCC(CN(CCOc4c(cnn4C)-c4cc(cn(C)c4=O)C(=O)N3)C1)C2 (single isomer, unassigned) [Example A85A]", "ENDPOINT": "GI50", "VALUE": 364}
{"COMPOUND": "CN1CCN(C2CCN(c3ccc4nc5n(c4c3)C34CCC(CN(CCOc6c(cnn6C)-c6cc(cn(C)c6=O)C(=O)N5)C3)C4)C2)CC1 (single isomer, unassigned) [Example A80B1]", "ENDPOINT": "GI50", "VALUE": 4.2}
{"COMPOUND": "CN1CC2(CCN(c3ccc4nc5n(c4c3)C34CCC(CN(CCOc6c(cnn6C)-c6cc(cn(C)c6=O)C(=O)N5)C3)C4)C2)C1 (single isomer, unassigned) [Example A73A]", "ENDPOINT": "GI50", "VALUE": 1100}
{"COMPOUND": "CN1CCN(c2ccc3nc4n(c3c2)C23CCC(CN(CCOc5c(cnn5C)-c5cc(cn(C)c5=O)C(=O)N4)C2)C3)CC1 (single isomer, unassigned) [Example A63A]", "ENDPOINT": "GI50", "VALUE": 3690}

* * *

system: A-431; test: Cell proliferation GI50, A-431 cells (Table 6); assay type: cell-based; settings: A-431 cells
Below, each entry is listed with its recorded log10 GI50.
ENDPOINT: log10 GI50 (log10 of the value in nM)

{"COMPOUND": "CN(C)C1CCN(c2ccc3nc4n(c3c2)C23CCC(CN(CCOc5c(cnn5C)-c5cc(cn(C)c5=O)C(=O)N4)C2)C3)CC1 (single isomer, unassigned) [Example A64B]", "TARGET_DESC": "A-431", "ENDPOINT": "log10 GI50", "VALUE": 2.99}
{"COMPOUND": "Cn1ncc2c1OCCN1CC3CCC(C3)(C1)n1c(nc3ccc(N4CCOCC4)cc31)NC(=O)c1cc-2c(=O)n(C)c1 (single isomer, unassigned) [Example A62A]", "TARGET_DESC": "A-431", "ENDPOINT": "log10 GI50", "VALUE": 3.85}
{"COMPOUND": "CN(C)C1CCN(c2ccc3nc4n(c3c2)C23CCC(CN(CCOc5c(cnn5C)-c5cc(cn(C)c5=O)C(=O)N4)C2)C3)CC1 (single isomer, unassigned) [Example A64A]", "TARGET_DESC": "A-431", "ENDPOINT": "log10 GI50", "VALUE": 3.79}
{"COMPOUND": "CN1CCN(C2CCN(c3ccc4nc5n(c4c3)C34CCC(CN(CCOc6c(cnn6C)-c6cc(cn(C)c6=O)C(=O)N5)C3)C4)CC2)CC1 (single isomer, unassigned) [Example A106B]", "TARGET_DESC": "A-431", "ENDPOINT": "log10 GI50", "VALUE": 2.86}
{"COMPOUND": "Cn1ncc2c1OCCN1CC3CCC(C3)(C1)n1c(nc3ccc(N4CCN(C5COC5)CC4)cc31)NC(=O)c1cc-2c(=O)n(C)c1 (single isomer, unassigned) [Example A71A]", "TARGET_DESC": "A-431", "ENDPOINT": "log10 GI50", "VALUE": 3.90}
{"COMPOUND": "CCN1CCN(c2ccc3nc4n(c3c2)C23CCC(CN(CCOc5c(cnn5C)-c5cc(cn(C)c5=O)C(=O)N4)C2)C3)CC1 (single isomer, unassigned) [Example A107B]", "TARGET_DESC": "A-431", "ENDPOINT": "log10 GI50", "VALUE": 2.43}
{"COMPOUND": "CN1CC2CN(c3ccc4nc5n(c4c3)C34CCC(CN(CCOc6c(cnn6C)-c6cc(cn(C)c6=O)C(=O)N5)C3)C4)CC2C1 (single isomer, unassigned) [Example A68B]", "TARGET_DESC": "A-431", "ENDPOINT": "log10 GI50", "VALUE": 2.45}
{"COMPOUND": "CN1CCC12CCN(c1ccc3nc4n(c3c1)C13CCC(CN(CCOc5c(cnn5C)-c5cc(cn(C)c5=O)C(=O)N4)C1)C3)CC2 (single isomer, unassigned) [Example A67B]", "TARGET_DESC": "A-431", "ENDPOINT": "log10 GI50", "VALUE": 2.85}
{"COMPOUND": "CN1CC2(C1)CN(c1ccc3nc4n(c3c1)C13CCC(CN(CCOc5c(cnn5C)-c5cc(cn(C)c5=O)C(=O)N4)C1)C3)C2 (single isomer, unassigned) [Example A92A]", "TARGET_DESC": "A-431", "ENDPOINT": "log10 GI50", "VALUE": 3.32}
{"COMPOUND": "CN(C)CCCN(C)c1ccc2nc3n(c2c1)C12CCC(CN(CCOc4c(cnn4C)-c4cc(cn(C)c4=O)C(=O)N3)C1)C2 (single isomer, unassigned) [Example A89B]", "TARGET_DESC": "A-431", "ENDPOINT": "log10 GI50", "VALUE": 3.23}
{"COMPOUND": "COCCN(C)c1ccc2nc3n(c2c1)C12CCC(CN(CCOc4c(cnn4C)-c4cc(cn(C)c4=O)C(=O)N3)C1)C2 (single isomer, unassigned) [Example A90B]", "TARGET_DESC": "A-431", "ENDPOINT": "log10 GI50", "VALUE": 3.50}
